src = ChEMBL document CHEMBL4340509

MEASUREMENT TARGET: Amyloid-beta precursor protein (Homo sapiens)
MEASUREMENT DESCRIPTION: Disaggregation of HFIP-pretreated human amyloid beta (1 to 42) preformed fibrils at 40 uM after 24 hrs by ThT-based fluorometric method relative to control
Activity calls are given as the source filed them. No cut-off for these calls is given here.
PROPERTY: Activity

MOLECULE	RESULT
Nc1ncc(-c2ccncc2)cc1/N=C/c1ccnc(NC(=O)C2CC2)c1	inactive
Nc1ncccc1/N=C/c1ccnc(NC(=O)C2CC2)c1	inactive
COc1cc(/C=C/C(=O)CC(=O)/C=C/c2ccc(O)c(OC)c2)ccc1O [CURCUMIN]	43%
Nc1ncc(-c2ccccc2)cc1/N=C/c1ccnc(NC(=O)C2CC2)c1	inactive
